Assay read-out IC50; system under study: UniProt:O43353.
Sequence (O43353 whole entry): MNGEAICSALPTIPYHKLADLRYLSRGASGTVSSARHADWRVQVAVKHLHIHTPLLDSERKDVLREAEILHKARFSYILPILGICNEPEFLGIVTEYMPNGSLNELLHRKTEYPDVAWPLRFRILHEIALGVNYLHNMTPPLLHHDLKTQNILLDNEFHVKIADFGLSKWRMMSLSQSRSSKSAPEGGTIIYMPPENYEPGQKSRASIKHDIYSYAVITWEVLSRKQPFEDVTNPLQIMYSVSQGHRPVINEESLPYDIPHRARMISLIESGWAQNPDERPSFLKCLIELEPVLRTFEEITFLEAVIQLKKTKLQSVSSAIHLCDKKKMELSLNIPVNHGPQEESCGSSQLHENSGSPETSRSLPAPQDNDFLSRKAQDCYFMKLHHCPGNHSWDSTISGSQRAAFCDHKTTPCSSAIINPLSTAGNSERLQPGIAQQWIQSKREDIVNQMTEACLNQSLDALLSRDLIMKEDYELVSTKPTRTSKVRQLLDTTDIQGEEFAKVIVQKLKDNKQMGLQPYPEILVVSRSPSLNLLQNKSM
One number for each entry, in nM.

*Q* Given the entry CC(C)(C)S(=O)(=O)c1cc2c(Nc3ccc4scnc4c3)ncnc2cc1OCCOP(=O)(O)O [GSK2983559] , what IC50 was observed with UniProt:O43353?
*A* 7

Please look at the following compound next.
*Q* Given the entry Fc1cc2scnc2cc1Nc1ncnc2sc(C3=CCNCC3)cc12 [RP1] , what IC50 was observed with UniProt:O43353?
*A* 9

---

- assayText: Pharmacokinetic study in mice, i.v. and p.o.
- Assay type: in vivo
- conditionSet: BALB/c, mouse, plasma, po, 10 mg/kg
propertyLabel: AUC(0-t)

*Q* State the recorded AUC(0-t) for this entry: CC(C)(C)S(=O)(=O)c1cc2c(Nc3ccc4scnc4c3)ncnc2cc1OCCOP(=O)(O)O
*A* 3120 ng·h/mL

---

- assayText: Pharmacokinetic study in mice, i.v. and p.o.
- Assay type: in vivo
- conditionSet: BALB/c, mouse, plasma, iv, 10 mg/kg
propertyLabel: Cmax (ng/mL)
Give bare numbers, in ng/mL.

*Q* State the recorded Cmax for this entry: CC(C)(C)S(=O)(=O)c1cc2c(Nc3ccc4scnc4c3)ncnc2cc1OCCOP(=O)(O)O
*A* 5680

---

- assayText: Pharmacokinetic study in mice, i.v. and p.o.
- Format: in vivo
- conditionSet: BALB/c, mouse, plasma, iv, 10 mg/kg
propertyLabel: Vd (L/kg)
Numbers only, in L/kg.

*Q* State the recorded Vd for this entry: CC(C)(C)S(=O)(=O)c1cc2c(Nc3ccc4scnc4c3)ncnc2cc1OCCOP(=O)(O)O [GSK2983559]
*A* 9.46

---

- assayText: Pharmacokinetic study in mice, i.v. and p.o.
- Type: in vivo
- conditionSet: BALB/c, mouse, plasma, iv, 10 mg/kg
propertyLabel: clearance
The reply must contain the numeric value and, after it, the unit.

*Q* State the recorded clearance for this entry: CC(C)(C)S(=O)(=O)c1cc2c(Nc3ccc4scnc4c3)ncnc2cc1OCCOP(=O)(O)O [GSK2983559]
*A* 44.3 mL/min/kg

---

- assayText: Pharmacokinetic study in mice, i.v. and p.o.
- Format: in vivo
- conditionSet: BALB/c, mouse, plasma, iv, 10 mg/kg
propertyLabel: half-life

*Q* State the recorded half-life for this entry: CC(C)(C)S(=O)(=O)c1cc2c(Nc3ccc4scnc4c3)ncnc2cc1OCCOP(=O)(O)O [GSK2983559]
*A* 2.42 h
